ASSAY SYSTEM: Cytochrome P450 2C19 (Homo sapiens) (UniProt P33261)
Sequence (P33261 whole entry, looked up): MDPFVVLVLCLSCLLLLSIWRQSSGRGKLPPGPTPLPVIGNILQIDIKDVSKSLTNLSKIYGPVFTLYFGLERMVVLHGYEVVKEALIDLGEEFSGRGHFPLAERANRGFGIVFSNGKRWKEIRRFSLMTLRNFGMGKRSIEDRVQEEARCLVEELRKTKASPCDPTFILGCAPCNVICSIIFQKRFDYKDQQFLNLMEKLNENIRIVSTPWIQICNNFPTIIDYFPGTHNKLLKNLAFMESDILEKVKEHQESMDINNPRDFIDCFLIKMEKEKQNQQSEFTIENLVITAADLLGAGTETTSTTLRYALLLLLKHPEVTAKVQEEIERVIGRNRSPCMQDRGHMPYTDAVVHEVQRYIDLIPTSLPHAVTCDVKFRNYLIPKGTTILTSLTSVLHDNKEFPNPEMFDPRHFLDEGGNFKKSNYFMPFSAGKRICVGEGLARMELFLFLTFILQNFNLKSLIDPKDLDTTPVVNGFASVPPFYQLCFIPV
PROTOCOL NOTES: Cytochrome panel assay with activity outcomes
ASSAY CONDITIONS: recombinant CYP, pro-luciferin dealkylation, luminescence, p450-cyp2c19; series mostly up to 57.1 µM
Out of some 16,000 compounds screened, about 5,800 (36%) were called active. Inconclusive results (about 23%) are left out. Calls come from the whole dose curve; as a rule, active = well fitted curve in the direction sought with a large enough effect; inconclusive = small, poorly fitted or top-dose-only effect, or effect the other way; inactive = no such curve, though single readings can be large or run the other way. The list shows a part of the results.
Outcome codes: True (active), False (inactive)

{"columns": ["COMPOUND", "LABEL VALUE"],
 "data": [
  ["CC(C)NC(=O)N1CC[C@@]2(CCCN(C(=O)c3csnn3)C2)C1", "False"],
  ["Cc1noc(C)c1C(=O)N1CCC[C@@]2(CCN(Cc3nccs3)C2)C1", "False"],
  ["COC(=O)[C@@H]1CC[C@H](C)[C@@H](c2ccc(C)cc2)N1C(=O)c1ccc(/C=N\\OC[C@@H](O)[C@H]2O[C@H]3OC(C)(C)O[C@H]3[C@@H]2O)cc1", "True"],
  ["O=S1(=O)CCN(c2ccccc2CC(c2c[nH]c3ccccc23)c2c[nH]c3ccccc23)CC1", "True"],
  ["CCS(=O)(=O)c1ccc2c(c1)N(S(C)(=O)=O)CC(C(=O)NCCOC)O2 (configuration not stated)", "False"],
  ["COC(=O)[C@@H]1CC[C@H](C)[C@@H](c2ccc(C)cc2)N1C(=O)c1ccc(/C=N\\O[C@@H](C)c2cn([C@H](CO)Cc3ccccc3)nn2)cc1", "True"],
  ["COC(=O)[C@@H]1CC[C@H](C)[C@@H](c2ccc(C)cc2)N1C(=O)c1ccc(/C=N\\OC[C@@H]2O[C@H](c3ccccc3)C=C[C@@H]2Oc2ccc(OC)cc2)cc1", "True"]
]}
